Listing of entries alongside the reported pIC50.
SYSTEM_NAME: orexin-2 receptor (hOX2R) (Homo sapiens)
Sequence (O43614 whole entry): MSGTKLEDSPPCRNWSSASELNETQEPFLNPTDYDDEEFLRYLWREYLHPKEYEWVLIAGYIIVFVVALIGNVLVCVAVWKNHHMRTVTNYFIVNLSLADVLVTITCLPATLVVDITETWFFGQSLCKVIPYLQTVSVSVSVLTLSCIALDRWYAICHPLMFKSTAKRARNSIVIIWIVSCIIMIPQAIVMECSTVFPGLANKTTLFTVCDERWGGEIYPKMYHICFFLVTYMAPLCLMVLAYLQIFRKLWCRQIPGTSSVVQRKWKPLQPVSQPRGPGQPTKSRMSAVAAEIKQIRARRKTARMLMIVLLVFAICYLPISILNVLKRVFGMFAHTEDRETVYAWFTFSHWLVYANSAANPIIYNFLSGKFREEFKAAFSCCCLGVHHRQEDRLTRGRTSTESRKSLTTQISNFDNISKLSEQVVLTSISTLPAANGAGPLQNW
TEST_NAME: Measurement of orexin antagonistic activity (intracellular Ca2+ fluorescence, FDSS) on hOX2R
TEST_PARAMETERS: CHO cells forcibly expressing hOX2R; Fluo-4AM; ligand peptide (substituted human orexin-A) 3 nM; compound preincubated 30 minutes; read-out: IC50 Value OX2
pIC50: −log10 of the molar value.

MOLECULE | SYSTEM_NAME | pIC50
CCN(C(=O)c1cc(F)ccc1-c1ncccn1)[C@@H](C)Cn1ccc(-c2ccc(F)cn2)n1 | orexin-2 receptor (hOX2R) (Homo sapiens) | 7.45
CCN(C(=O)c1cc(C)ccc1-n1nccn1)[C@@H](C)Cn1nnc(-c2ccc(F)cn2)n1 | orexin-2 receptor (hOX2R) (Homo sapiens) | 7.56
Cc1ccc(-n2nccn2)c(C(=O)N(C)[C@@H](C)Cn2ccc(-c3ccc(F)cn3)n2)c1 | orexin-2 receptor (hOX2R) (Homo sapiens) | 8.24
CCN(C(=O)c1cc(C)ccc1-n1nccn1)[C@@H](C)Cn1cc(-c2ccccc2)nn1 | orexin-2 receptor (hOX2R) (Homo sapiens) | 7.75
C[C@@H](Cn1ccc(-c2ccc(F)cn2)n1)N(C)C(=O)c1cc(F)ccc1-c1ncccn1 | orexin-2 receptor (hOX2R) (Homo sapiens) | 7.12
CCN(C(=O)c1nc(C)ccc1-n1nccn1)[C@@H](C)Cn1ccc(-c2ccc(F)cc2)n1 | orexin-2 receptor (hOX2R) (Homo sapiens) | 8.35
CCN(C(=O)c1cc(C)ccc1-n1nccn1)[C@@H](C)Cn1cc(-c2cccc(OC)c2)nn1 | orexin-2 receptor (hOX2R) (Homo sapiens) | 8.82
CCN(C(=O)c1c(F)cccc1-c1ncccn1)[C@@H](C)Cn1ccc(-c2ccc(F)cc2)n1 | orexin-2 receptor (hOX2R) (Homo sapiens) | 7.27
CCN(C(=O)c1nc(C)ccc1-n1nccn1)[C@@H](C)Cn1cc(-c2ccc(F)cc2)cn1 | orexin-2 receptor (hOX2R) (Homo sapiens) | 7.25
Cc1ccc(-n2nccn2)c(C(=O)N(CCO)[C@@H](C)Cn2ccc(-c3ccc(F)cc3)n2)c1 | orexin-2 receptor (hOX2R) (Homo sapiens) | 7.66
CCN(C(=O)c1nc(C)ccc1-c1ncccn1)[C@@H](C)Cn1ccc(-c2ccc(F)cc2)n1 | orexin-2 receptor (hOX2R) (Homo sapiens) | 7.74
Cc1ccc(-n2nccn2)c(C(=O)N(CCO)[C@@H](C)Cn2cc(-c3ccc(F)cc3)nn2)c1 | orexin-2 receptor (hOX2R) (Homo sapiens) | 8.24
CCN(C(=O)c1cc(F)ccc1-n1nccn1)[C@@H](C)Cn1nnc(-c2ccc(F)cn2)n1 | orexin-2 receptor (hOX2R) (Homo sapiens) | 6.55
CCN(C(=O)c1cc(F)ccc1-c1ncccn1)[C@H](C)Cn1ccc(-c2ccc(F)cc2)n1 | orexin-2 receptor (hOX2R) (Homo sapiens) | 6.24
CCN(C(=O)c1nc(C)ccc1-n1nccn1)[C@@H](C)Cn1nnc(-c2ccc(F)cn2)n1 | orexin-2 receptor (hOX2R) (Homo sapiens) | 5.99
CCN(C(=O)c1cc(F)ccc1-n1nccn1)[C@@H](C)Cc1noc(-c2ccc(F)cc2)n1 | orexin-2 receptor (hOX2R) (Homo sapiens) | 7.77
CCN(C(=O)c1cc(C)ccc1-n1nccn1)[C@@H](C)Cn1ccc(-c2ccc(F)cn2)n1 | orexin-2 receptor (hOX2R) (Homo sapiens) | 8.96
CCN(C(=O)c1nc(C)ccc1-n1nccn1)[C@@H](C)Cn1cc(-c2ccc(F)c(F)c2)cn1 | orexin-2 receptor (hOX2R) (Homo sapiens) | 7.86
Cc1ccc(-c2ncccn2)c(C(=O)N(C)[C@@H](C)Cn2ccc(-c3ccc(F)cn3)n2)c1 | orexin-2 receptor (hOX2R) (Homo sapiens) | 8.08
Cc1ccc(-n2nccn2)c(C(=O)N(C)[C@H](Cn2ccc(-c3ccc(F)cn3)n2)C(C)C)c1 | orexin-2 receptor (hOX2R) (Homo sapiens) | 5.72
COCCN(C(=O)c1cc(C)ccc1-n1nccn1)[C@@H](C)Cn1nnc(-c2ccc(F)cc2)n1 | orexin-2 receptor (hOX2R) (Homo sapiens) | 7.17
CC[C@@H](Cn1ccc(-c2ccc(F)cn2)n1)N(C)C(=O)c1cc(C)ccc1-n1nccn1 | orexin-2 receptor (hOX2R) (Homo sapiens) | 7.38
CCN(C(=O)c1cc(C)ccc1-n1nccn1)[C@@H](C)Cc1noc(-c2ccc(F)cc2)n1 | orexin-2 receptor (hOX2R) (Homo sapiens) | 8.48
CCN(C(=O)c1cc(F)ccc1-c1ncccn1)[C@@H](C)Cn1cc(-c2ccc(F)c(F)c2)cn1 | orexin-2 receptor (hOX2R) (Homo sapiens) | 7.99
CCN(C(=O)c1ccccc1-n1nccn1)[C@@H](C)Cn1nnc(-c2ccc(F)cc2)n1 | orexin-2 receptor (hOX2R) (Homo sapiens) | 7.12
CCN(C(=O)c1cc(C)ccc1-n1nccn1)[C@@H](C)Cn1cc(-c2ccc(Cl)cc2)nn1 | orexin-2 receptor (hOX2R) (Homo sapiens) | 7.19
CCN(C(=O)c1ccccc1-n1nccn1)[C@@H](C)Cn1cc(-c2ccc(F)cn2)cn1 | orexin-2 receptor (hOX2R) (Homo sapiens) | 6.73
Cc1ccc(-n2nccn2)c(C(=O)N(C)[C@@H](C)Cn2cc(-c3ccc(F)cn3)cn2)c1 | orexin-2 receptor (hOX2R) (Homo sapiens) | 7.28
Cc1ccc(-n2nccn2)c(C(=O)N(CC(C)O)[C@@H](C)Cn2cc(-c3ccc(F)cc3)cn2)c1 (stereo partly shown) | orexin-2 receptor (hOX2R) (Homo sapiens) | 7.55
CCN(C(=O)c1ccccc1-c1ncccn1)[C@@H](C)Cc1noc(-c2ccc(F)cc2)n1 | orexin-2 receptor (hOX2R) (Homo sapiens) | 7.12
CCN(C(=O)c1cc(F)ccc1-c1ncccn1)[C@@H](C)Cn1cc(-c2ccc(F)cn2)cn1 | orexin-2 receptor (hOX2R) (Homo sapiens) | 6.48

This collection of values is drawn from patent US20150166523A1.
